This collection of values is drawn from paper PMC11538350.

PROCEDURE TEXT: PK study in mice after intravenous administration
Format: in vivo, CD-1 mice
ASSAY CONTEXT: male, CD-1, mouse, plasma, iv, 1 mg/kg, concentration at t = 0 h, CD-1 mice, 1 mg/kg IV
Method: and approved by the Helmholtz Centre for Infection Research. Germany), 4-weeks-old, were used. The animal studies were conducted in accordance […] Verbraucherschutz und Lebensmittelsicherheit, Oldenburg, Germany. […] transferred to standard HPLC-glass vials. Samples were analyzed using LC-MS/MS conditions as described above. Peaks of PK samples were quantified using the calibration curve using AB Sciex Multiquant Software 3.0. […]
ASSAY ENDPOINT: C0

Param item = `C#CC[C@H](NC(=O)c1ccc(NC(=O)c2ccc(C#N)cc2)cc1)C(=O)Nc1ccc(NC(=O)c2ccc(C(=O)Nc3ccc(C(=O)O)cc3)c(O)c2OC(C)C)cc1` ; retrieve measured C0.
~2.2 µg/mL
